Tested on: Fibroblast
assay-info: Multiplex assay against human fibroblast
Type: toxicity, cell-based
experimental-context: 24 h, 10 µM, compound concentration 10 uM, replicate 2
measured-property: Population Mitochondria Different-Phenotype (%)
Return type: number; implicit unit %.

Complete the entry with Population Mitochondria Different-Phenotype (%) for Cc1cn(-c2cc(NC(=O)c3ccc4c(c3)CN(c3cncnc3)C[C@@H]4C)cc(C(F)(F)F)c2)cn1
18

Complete the entry with Population Mitochondria Different-Phenotype (%) for CC(=O)c1cc(-c2cc(C(=O)NC3CC3)ccc2C)c2ncccn12
12

Complete the entry with Population Mitochondria Different-Phenotype (%) for COc1cc2c(Nc3ccc(NC(=O)c4ccccc4)cc3)ncnc2cc1OCCCN1CCOCC1
7

Complete the entry with Population Mitochondria Different-Phenotype (%) for N#Cc1cnc(Nc2cc(NC[C@H]3CNCCO3)c(C(F)(F)F)cn2)cn1
30

Complete the entry with Population Mitochondria Different-Phenotype (%) for CCOc1cc(N2CCC(O)CC2)ccc1Nc1ncc2c(n1)N(C1CCCC1)CCC(=O)N2C
3

Complete the entry with Population Mitochondria Different-Phenotype (%) for Nc1ccc(C(=O)Nc2cccc(-c3nc(N4CCOCC4)c4oc5ncccc5c4n3)c2)cn1
100

Complete the entry with Population Mitochondria Different-Phenotype (%) for Cl.Cl.NC1(c2ccc(-c3nc4ccn5c(=O)[nH]nc5c4cc3-c3ccccc3)cc2)CCC1
33

Complete the entry with Population Mitochondria Different-Phenotype (%) for CCOc1cc2ncc(C#N)c(Nc3ccc(OCc4cccc(F)c4)c(Cl)c3)c2cc1NC(=O)/C=C/CN(C)C
23

Complete the entry with Population Mitochondria Different-Phenotype (%) for CN(C)CCOc1ccc(-c2nc(-c3ccncc3)c(-c3ccc4c(c3)CC/C4=N\O)[nH]2)cc1
18

Complete the entry with Population Mitochondria Different-Phenotype (%) for Cc1nc(Cc2cccc(C(F)(F)F)c2)sc1-c1ccc(C(N)=O)nc1 [TP-024n]
32

Complete the entry with Population Mitochondria Different-Phenotype (%) for Nc1nc2c(c(N3CCNCC3)n1)CCC1=C2[C@@H]2CCCC[C@@H]2O1
79

Complete the entry with Population Mitochondria Different-Phenotype (%) for CCn1c(-c2nonc2N)nc2cnc(Oc3cccc(NC(=O)c4ccc(OCCN5CCOCC5)cc4)c3)cc21 [GSK-269962A]
97

Complete the entry with Population Mitochondria Different-Phenotype (%) for CCc1cc2c(cc1CC)CC(NC[C@H](O)c1ccc(O)c3[nH]c(=O)ccc13)C2
100

Complete the entry with Population Mitochondria Different-Phenotype (%) for CNC(=O)c1cc(Oc2ccc(NC(=O)Nc3cc(C(C)(C)C)nn3-c3ccc4ncccc4c3)c(F)c2)ccn1
44

====

System: U2OS
assay-info: Incucyte cell viability with U2OS; also: filed as whole numbers so only -1 and 0 and 1 occur
Assay type: toxicity, cell-based
experimental-context: human, 6 h, 10 µM, compound concentration 10 uM, replicate number 1, timepoint 6 hours
Answer each item with its documented Growth Rate.
Give your answer as a number; write no unit.

Complete the entry with Growth Rate for CN(C)C(=O)c1ccc(-c2cc(C(=O)N(C)C3CCCC3)no2)cc1O
1

Complete the entry with Growth Rate for CCN1CCN(Cc2ccc(NC(=O)c3ccc(C)c(Oc4ccnc5[nH]ccc45)c3)cc2C(F)(F)F)CC1.Cl.Cl.Cl.O
0

Complete the entry with Growth Rate for CCOc1cc(N2CCC(O)CC2)ccc1Nc1ncc2c(n1)N(C1CCCC1)CCC(=O)N2C
0

Complete the entry with Growth Rate for Clc1cc2c(NC3CCCC3)nnc(-c3ccncc3)c2cc1Cl
0

Complete the entry with Growth Rate for COc1ccc(NS(=O)(=O)c2sc3ccc(Cl)cc3c2C)cc1N1CCNCC1.Cl
0

Complete the entry with Growth Rate for NS(=O)(=O)c1cc(NC(=O)C2(c3ccccc3Cl)CC2)ccc1Oc1cccc(Cl)c1
0

Complete the entry with Growth Rate for CC(C)Oc1ccc(C(=O)N[C@H](CNC(=O)CN(C)C)Cc2ccc(-c3cn4cccc([C@H](C)O)c4n3)cc2)cc1Cl [GSK-923295A]
0

Complete the entry with Growth Rate for CC1=C(C#N)C(c2ccc3c(c2)c(NC(=O)c2ccccc2C)nn3C)C(C#N)=C(C)N1
1

Complete the entry with Growth Rate for CCNC(=O)c1cc2c(N3CCOC[C@@H]3C)ccnc2[nH]1
1

Complete the entry with Growth Rate for CN(C)CCOc1ccc(-c2nc(-c3ccncc3)c(-c3ccc4c(c3)CC/C4=N\O)[nH]2)cc1
0

Complete the entry with Growth Rate for O=C(c1ccc(F)c(F)c1Nc1ccc(I)cc1F)N1CC(O)([C@@H]2CCCCN2)C1
0

Complete the entry with Growth Rate for CCC(=O)N[C@H]1CC[C@@H](C(=O)N(C)c2ccc(-c3nc4ccccc4o3)cc2)C1
0

Complete the entry with Growth Rate for CN(C)C/C=C/C(=O)Nc1cc2c(Nc3ccc(F)c(Cl)c3)ncnc2cc1O[C@H]1CCOC1.O=C(O)/C=C\C(=O)O.O=C(O)/C=C\C(=O)O [AFATINIB DIMALEATE]
0

Complete the entry with Growth Rate for CC(C)NCC(O)c1ccc(N)c(C#N)c1 (stereo unspecified)
1

Complete the entry with Growth Rate for CNC(=O)c1cc(Oc2ccc(NC(=O)Nc3cc(C(C)(C)C)nn3-c3ccc4ncccc4c3)c(F)c2)ccn1
0

Complete the entry with Growth Rate for CCCCc1nc2ccc(NC(=O)NC3CCCCC3)cc2n1Cc1ccc(-c2ccccc2C(=O)O)cc1
0

Complete the entry with Growth Rate for Cc1cc(NC(=O)Nc2ccc(N(C)C)cc2)c2cc(F)cc(F)c2n1
0

Complete the entry with Growth Rate for N#Cc1ccc(Nc2ccc3[nH]c(=O)[nH]c3c2)c(Cl)c1 [TP-021n]
0

Complete the entry with Growth Rate for CS(=O)(=O)N1CCN(Cc2cc3nc(-c4cccc5[nH]ncc45)nc(N4CCOCC4)c3s2)CC1
0

Complete the entry with Growth Rate for COc1cc2c(NC3CCN(C(C)C)CC3)nc(N3CCC(F)(F)CC3)nc2cc1OCCCN1CCCC1
1

Complete the entry with Growth Rate for Cc1c(Oc2ccc(F)cc2)c(OC(C)C)nn1-c1ccc(C2CC2)cn1
1

Complete the entry with Growth Rate for Cc1cc(C)c(N)c(C#Cc2cccc(F)c2)n1.Cl
0

Complete the entry with Growth Rate for CCCc1cc(C)[nH]c(=O)c1CNC(=O)c1cc(-c2ccnc(N3CCN(C)CC3)c2)cc2c1cnn2C(C)C
0

Complete the entry with Growth Rate for CCCCN(CCCC)C(=O)CN1C[C@@H](c2cc(OC)c3c(c2)OCO3)[C@H](C(=O)O)[C@H]1CC(C)(C)CCC
0

Complete the entry with Growth Rate for CCCCN(CCCC)C(=O)CN1C[C@@H](c2ccc3c(c2)OCO3)[C@H](C(=O)O)[C@H]1c1ccc(OC)cc1
0

Complete the entry with Growth Rate for FC(F)(F)c1c(N2CCC(c3ccccc3)CC2)ccn2c(CC3CC3)nnc12
0

Entry source: ChEMBL document CHEMBL4689842
